Target: mutant BRAF enzyme (BRAF-V600E) (Homo sapiens (Human), UniProt P15056, V600E)
Sequence (P15056 whole entry V600E): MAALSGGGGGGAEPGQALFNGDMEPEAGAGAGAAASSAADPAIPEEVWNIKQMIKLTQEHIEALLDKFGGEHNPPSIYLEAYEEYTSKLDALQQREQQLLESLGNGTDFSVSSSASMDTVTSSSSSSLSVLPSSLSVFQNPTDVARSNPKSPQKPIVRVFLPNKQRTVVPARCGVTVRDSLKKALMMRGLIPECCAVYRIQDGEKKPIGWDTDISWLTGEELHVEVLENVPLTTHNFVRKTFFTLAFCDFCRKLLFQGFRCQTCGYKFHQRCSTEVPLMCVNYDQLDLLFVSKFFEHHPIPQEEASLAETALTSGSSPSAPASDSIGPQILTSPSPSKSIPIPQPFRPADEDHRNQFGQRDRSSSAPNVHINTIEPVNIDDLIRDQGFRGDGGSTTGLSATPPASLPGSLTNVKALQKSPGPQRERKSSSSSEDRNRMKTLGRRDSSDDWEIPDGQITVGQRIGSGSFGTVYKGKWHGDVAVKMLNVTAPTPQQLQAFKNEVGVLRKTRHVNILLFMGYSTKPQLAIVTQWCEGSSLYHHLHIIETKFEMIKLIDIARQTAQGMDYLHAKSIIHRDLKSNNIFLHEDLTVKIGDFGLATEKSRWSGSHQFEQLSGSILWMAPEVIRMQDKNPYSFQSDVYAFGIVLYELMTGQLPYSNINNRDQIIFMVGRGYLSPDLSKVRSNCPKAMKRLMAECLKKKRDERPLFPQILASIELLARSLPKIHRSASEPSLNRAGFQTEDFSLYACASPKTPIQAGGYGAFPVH
Assay: RAF inhibition assay (TB-PMAP2K1 kit), BRAF-V600E
Assay type: biochemical
Conditions: FLUORESCEIN-MAP2K1 substrate, 60 min reaction
Param label: returns met when IC50 < 7 nM, returns not met otherwise, including exact equality.

Query :: Please state whether IC50 is below 7 nM for Cc1ccc2c(C(O)c3ccc(C(F)(F)F)cc3)nccc2c1NC(=O)c1csc2c(N)ncnc12 (stereo not shown) [Compound 33]
Result :: not met

Query :: Please state whether IC50 is below 7 nM for Cc1ccc2c(Nc3cccc(Cl)c3F)nccc2c1NC(=O)c1cn(C)c2c(N)ncnc12 [Compound 101]
Result :: met

Query :: Please state whether IC50 is below 7 nM for Cc1ccc2c(Cc3ccc(Cl)cc3F)nccc2c1NC(=O)c1csc2c(N)ncnc12 [Compound 26]
Result :: not met

Query :: Please state whether IC50 is below 7 nM for Cc1ccc2c(Nc3cccc(Cl)c3F)nccc2c1NC(=O)c1cncc2c(N)ncnc12 [Compound 69]
Result :: met

Query :: Please state whether IC50 is below 7 nM for Cc1ccc2c(Nc3cccc(C(F)(F)F)c3)nccc2c1NC(=O)c1cccc2c(N)nccc12 [Comparative Example 2, reference compound]
Result :: not met

Query :: Please state whether IC50 is below 7 nM for Cc1ccc2c(Nc3cccc(Cl)c3F)nccc2c1NC(=O)c1cc(N2CCOCC2)cc2c(N)ncnc12 [Compound 53]
Result :: not met

###

Target: mutant BRAF enzyme (BRAF-V600E) (Homo sapiens (Human), UniProt P15056, V600E)
Assay: RAF inhibition assay (TB-PMAP2K1 kit), BRAF-V600E
Type: biochemical
Details: FLUORESCEIN-MAP2K1 substrate, 60 min reaction
pIC50: −log10 of the molar value.
Param threshold (8) applies to pIC50; output true (1) when value >= threshold, false (0) when value < threshold.

Query :: Hello, I need to know if "Cc1ccc2c(Nc3c(F)cc(F)cc3F)nccc2c1NC(=O)c1cccc2c(N)ncnc12" has measured pIC50 not below 8. Thanks!
Result :: true (1)

Query :: Hello, I need to know if "Cc1ccc2c(Nc3cc(Cl)ccc3F)nccc2c1NC(=O)c1cc(F)cc2c(N)ncnc12" has measured pIC50 not below 8. Thanks!
Result :: false (0)

Query :: Hello, I need to know if "Cc1ccc2c(Nc3cccc(Cl)c3F)nccc2c1NC(=O)c1cnc2c(N)ncnn12" has measured pIC50 not below 8. Thanks!
Result :: true (1)

Query :: Hello, I need to know if "COc1ccc(Nc2nccc3c(NC(=O)c4cccc5c(N)ncnc45)c(C)ccc23)cc1" has measured pIC50 not below 8. Thanks!
Result :: true (1)

Query :: Hello, I need to know if "Cc1ccc2c(Nc3ccccc3F)nccc2c1NC(=O)c1cnc2c(N)ncnn12" has measured pIC50 not below 8. Thanks!
Result :: true (1)

Query :: Hello, I need to know if Cc1ccc2c(C(O)c3cccc(Cl)c3)nccc2c1NC(=O)c1csc2c(N)ncnc12 (stereo not shown) has measured pIC50 not below 8. Thanks!
Result :: true (1)

Query :: Hello, I need to know if "Cc1ccc2c(Cc3ccccc3F)nccc2c1NC(=O)c1csc2c(N)ncnc12" has measured pIC50 not below 8. Thanks!
Result :: false (0)

Query :: Hello, I need to know if "Cc1ccc2c(Nc3ccnc(C(F)(F)F)c3)nccc2c1NC(=O)c1cccc2c(N)ncnc12" has measured pIC50 not below 8. Thanks!
Result :: false (0)

Query :: Hello, I need to know if "Cc1cc(C(=O)Nc2c(C)ccc3c(Nc4cccc(Cl)c4F)nccc23)c2ncnc(N)c2c1" has measured pIC50 not below 8. Thanks!
Result :: false (0)

Query :: Hello, I need to know if "Cc1ccc2c(Nc3cccc(Cl)c3F)nccc2c1NC(=O)c1ccnc2c(N)ncnc12" has measured pIC50 not below 8. Thanks!
Result :: false (0)

Query :: Hello, I need to know if "Cc1ccc2c(Nc3cccc(Cl)c3F)nccc2c1NC(=O)c1ccc(F)c2c(N)ncnc12" has measured pIC50 not below 8. Thanks!
Result :: true (1)
